biological target: Trifunctional purine biosynthetic protein adenosine-3 (Homo sapiens, UniProt P22102); experiment: Tested for the inhibition of recombinant human monofunctional Glycinamide ribonucleotide formyltransferase
Sequence (P22102 whole entry): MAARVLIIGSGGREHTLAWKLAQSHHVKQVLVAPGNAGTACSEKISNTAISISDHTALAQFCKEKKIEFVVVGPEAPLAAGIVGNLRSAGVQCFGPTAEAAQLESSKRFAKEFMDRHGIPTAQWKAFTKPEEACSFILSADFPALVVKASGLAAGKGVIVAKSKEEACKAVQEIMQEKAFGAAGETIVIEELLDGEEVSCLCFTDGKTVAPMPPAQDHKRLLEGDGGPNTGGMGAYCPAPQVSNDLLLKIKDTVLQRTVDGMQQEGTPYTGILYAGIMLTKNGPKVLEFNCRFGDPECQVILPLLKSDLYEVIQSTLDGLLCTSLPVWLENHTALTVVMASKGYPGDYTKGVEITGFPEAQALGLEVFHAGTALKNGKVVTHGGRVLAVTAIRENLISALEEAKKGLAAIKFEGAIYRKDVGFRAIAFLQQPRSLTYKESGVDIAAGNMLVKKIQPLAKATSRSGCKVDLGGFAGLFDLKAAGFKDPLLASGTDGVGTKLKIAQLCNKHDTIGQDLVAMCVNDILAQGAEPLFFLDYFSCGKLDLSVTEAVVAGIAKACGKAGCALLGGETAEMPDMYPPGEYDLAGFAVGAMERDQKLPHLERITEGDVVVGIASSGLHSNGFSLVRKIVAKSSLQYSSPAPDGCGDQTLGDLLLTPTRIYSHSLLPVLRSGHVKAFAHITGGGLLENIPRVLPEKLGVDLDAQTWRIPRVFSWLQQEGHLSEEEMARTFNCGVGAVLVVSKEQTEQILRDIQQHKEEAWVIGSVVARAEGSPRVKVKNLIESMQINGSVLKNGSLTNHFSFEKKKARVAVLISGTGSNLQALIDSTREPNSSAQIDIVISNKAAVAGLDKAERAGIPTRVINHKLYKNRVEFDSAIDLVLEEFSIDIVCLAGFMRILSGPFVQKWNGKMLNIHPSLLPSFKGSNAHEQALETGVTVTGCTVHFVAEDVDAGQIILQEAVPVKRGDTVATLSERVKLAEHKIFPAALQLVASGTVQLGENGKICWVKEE
Reported Endpoint: Ki

Compound	Ki
O=C(O)CC[C@H](NC(=O)c1ccc(CCC2CNc3ncnc(O)c3C2)cc1)C(=O)O (some centres not stated)	82.1 µM

Below: the item to evaluate.
Looking up Nc1ncc2c(n1)NCC(CCc1ccc(C(=O)N[C@@H](CCC(=O)O)C(=O)O)cc1)C2 (some centres not stated) , I see its Ki listed as 186 µM

----------
target: Trifunctional purine biosynthetic protein adenosine-3 (Mus musculus); assay: Tested for the inhibition of trifunctional Glycinamide ribonucleotide formyltransferase isolated from murine L1210 cells.
Sequence (Q64737 whole entry): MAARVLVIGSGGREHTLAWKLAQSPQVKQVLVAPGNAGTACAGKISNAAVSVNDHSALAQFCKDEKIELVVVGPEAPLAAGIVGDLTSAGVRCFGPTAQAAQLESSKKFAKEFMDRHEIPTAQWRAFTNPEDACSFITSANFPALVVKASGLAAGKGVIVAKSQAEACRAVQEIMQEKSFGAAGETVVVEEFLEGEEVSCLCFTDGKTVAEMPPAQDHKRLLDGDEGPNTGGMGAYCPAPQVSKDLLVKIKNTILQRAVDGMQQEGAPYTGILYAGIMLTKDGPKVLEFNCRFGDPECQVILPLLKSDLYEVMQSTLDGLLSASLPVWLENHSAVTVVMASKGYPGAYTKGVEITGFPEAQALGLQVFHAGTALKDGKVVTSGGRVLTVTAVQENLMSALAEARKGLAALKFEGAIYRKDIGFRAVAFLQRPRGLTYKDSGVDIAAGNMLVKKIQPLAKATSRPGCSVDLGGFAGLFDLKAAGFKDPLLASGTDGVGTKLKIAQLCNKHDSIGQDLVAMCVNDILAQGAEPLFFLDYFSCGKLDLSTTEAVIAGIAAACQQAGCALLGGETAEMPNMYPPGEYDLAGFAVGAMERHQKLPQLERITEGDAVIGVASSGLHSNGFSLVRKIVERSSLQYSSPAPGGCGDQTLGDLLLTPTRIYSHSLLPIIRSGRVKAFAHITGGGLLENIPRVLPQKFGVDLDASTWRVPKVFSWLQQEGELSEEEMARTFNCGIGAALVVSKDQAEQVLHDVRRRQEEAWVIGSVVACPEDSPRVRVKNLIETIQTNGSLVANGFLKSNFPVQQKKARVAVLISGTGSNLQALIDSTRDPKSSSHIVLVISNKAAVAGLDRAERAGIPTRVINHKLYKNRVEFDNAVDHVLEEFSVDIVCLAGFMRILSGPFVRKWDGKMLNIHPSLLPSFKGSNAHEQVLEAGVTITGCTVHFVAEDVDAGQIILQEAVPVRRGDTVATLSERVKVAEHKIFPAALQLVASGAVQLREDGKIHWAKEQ
Reported Endpoint: Ki (µM)
Give the number; µM is assumed, so skip it.

Compound	Reported Endpoint	Measurement
Nc1nc2c(c(=O)[nH]1)C[C@@H](CCc1ccc(C(=O)N[C@@H](CCC(=O)O)C(=O)O)cc1)CN2 [LOMETREXOL]	Ki	0.12

Below: the item to evaluate.
Looking up O=C(O)CC[C@H](NC(=O)c1ccc(CCC2CNc3ncnc(O)c3C2)cc1)C(=O)O (some centres not stated) , I see its Ki listed as 27

All figures here come from ChEMBL document CHEMBL1127157.
